Test system: Fer (mouse);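 also: 11-residue human phosphosite peptides and single-mutation variants displayed on the E. coli surface, counted by deep sequencing, each peptide's frequency after selection divided by its frequency in the unselected input library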;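 also: frequency after pTyr selection over input frequency; kinase dosed for 20-30% of maximal phosphorylation in three min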
method.notes: phosphorylation enrichment, bacterial display (enrichment ratio); higher = better substrate or ligand; peptides without Tyr show the background

[
  {
    "record.sequence": "PSARTYCFKQE [KLHDC9_Y175_YF]",
    "phosphorylation enrichment": 0.415
  },
  {
    "record.sequence": "ISPPVYLTNEW [NRK_Y885]",
    "phosphorylation enrichment": 0.698
  },
  {
    "record.sequence": "PVADPYDQSFE [MAPK14_Y323]",
    "phosphorylation enrichment": 0.759
  },
  {
    "record.sequence": "FEEDSYVKRSQ [RET_Y905_YF]",
    "phosphorylation enrichment": 0.41
  },
  {
    "record.sequence": "FVSIVCNDSGE [TSC2_Y1650_Y1650C]",
    "phosphorylation enrichment": 0.613
  },
  {
    "record.sequence": "PSGPAYRGAVP [ASAH1_Y43_T42A]",
    "phosphorylation enrichment": 0.533
  },
  {
    "record.sequence": "RENGPYFASFP [GDAP2_Y487_T489A_YF]",
    "phosphorylation enrichment": 0.627
  },
  {
    "record.sequence": "ENKGVYVPMSG [IVD_Y277_L279P]",
    "phosphorylation enrichment": 0.405
  },
  {
    "record.sequence": "RLLRGYDQLAF [HLA-C_Y137_S140L_YF]",
    "phosphorylation enrichment": 0.498
  },
  {
    "record.sequence": "RFGKVYKGHLF [ROR2_Y488]",
    "phosphorylation enrichment": 0.585
  },
  {
    "record.sequence": "IRRIAYEFVEM [ADA_Y84_K80R]",
    "phosphorylation enrichment": 2.85
  },
  {
    "record.sequence": "FRASFYRKGGC [ALK_Y1283_YF]",
    "phosphorylation enrichment": 0.466
  },
  {
    "record.sequence": "VQVAFYTVMMN [SPATA17_Y84_M86V_YF]",
    "phosphorylation enrichment": 0.677
  },
  {
    "record.sequence": "KMMGRYEMYAR [UPB1_Y362_T359M]",
    "phosphorylation enrichment": 0.302
  },
  {
    "record.sequence": "TVSSDYLHPQF [CCPG1_Y569_F566S_YF]",
    "phosphorylation enrichment": 0.495
  },
  {
    "record.sequence": "ALECLYHREKR [TEKT5_Y195]",
    "phosphorylation enrichment": 0.451
  },
  {
    "record.sequence": "KIVQDYLEKFY [MMP8_Y36_T32I]",
    "phosphorylation enrichment": 0.428
  },
  {
    "record.sequence": "WHFTFYNELRV [ACTC1_Y93_H90Y_YF]",
    "phosphorylation enrichment": 0.578
  },
  {
    "record.sequence": "DKNSSYFADWF [TUBB8_Y340_L345F]",
    "phosphorylation enrichment": 0.345
  },
  {
    "record.sequence": "TEGNEYVFRVA",
    "phosphorylation enrichment": 0.44
  },
  {
    "record.sequence": "LVMFIYAISGM [SCN1A_Y1684_F1687S]",
    "phosphorylation enrichment": 0.813
  },
  {
    "record.sequence": "PLYGEYFTLQI [TP53_Y327_D324Y]",
    "phosphorylation enrichment": 3.72
  },
  {
    "record.sequence": "DDERGYRRVRC [GIGYF2_Y268_S273C]",
    "phosphorylation enrichment": 0.513
  },
  {
    "record.sequence": "FGSLLYKFAFK [FANCD2_Y458_YF]",
    "phosphorylation enrichment": 0.336
  },
  {
    "record.sequence": "GLSDPYVKIHL [SYT2_Y309]",
    "phosphorylation enrichment": 0.488
  },
  {
    "record.sequence": "NIISFYLSRDP [CTSD_Y232_F229I]",
    "phosphorylation enrichment": 0.43
  },
  {
    "record.sequence": "TEVIWYKGDEE",
    "phosphorylation enrichment": 0.393
  },
  {
    "record.sequence": "SHGKRYRVPSD [HHIPL2_Y395]",
    "phosphorylation enrichment": 0.285
  },
  {
    "record.sequence": "AVDMTYDGHPV [FLNB_Y1020_V1018M]",
    "phosphorylation enrichment": 0.89
  }
]
